Tested on: COLO 205
Assay Overview: NCI tumour cell line growth inhibition, 48 h
Active and inactive are the calls of the source. No stated cut-off is given here; in the data, active = GI50 up to about 1.1 µM and inactive = higher.
Would you mind telling me the reported GI50 of each entry?

Past entries and their recorded results:
1. CCCCCCCNC(P(=O)(O)O)P(=O)(O)O :: > 100 µM (inactive)
2. O=C(O)C(O)C(O)C(O)C(O)CO.[Ba+2] (stereo unspecified) :: > 100 µM (inactive)
3. CCCCCCCCCCC(C)CCCCCCC(=O)O (stereo unspecified) :: > 100 µM (inactive)
4. Cc1c(O)nc(-n2[nH]c3c(c2=O)CCCC3)[nH]c1=O :: > 100 µM (inactive)
5. COC(=O)c1sc(=NC(=S)N2CCCCC2)sc1C(=O)OC :: 63 µM (inactive)

// query GI50 value for entry "CN(NC(=O)/C(=C/c1ccc(O)cc1)NC(=O)c1ccccc1)c1ccnc2cc(Cl)ccc12"
17.5 µM (inactive)
